# assay.info: Solubility in water
# Assay type: physicochemical
# experimental.conditions: water
experimental.endpoint: solubility (µg/mL)
Give bare numbers, in µg/mL.

Recorded solubility (compound O=C(O)c1cc(O)c2c(c1)C(=O)c1ccc(S(=O)(=O)O)c(O)c1C2=O ): 1200
